Test system: T47D
Assay: NCI tumour cell line growth inhibition, 48 h
The source made the active and inactive calls. No stated cut-off is given here; in the data, active = GI50 up to about 1.1 µM and inactive = higher.
measurementName: GI50

Solved entries (count: 2):
molecule	measurementName	experimentalValue
c1ccc2c(c1)-c1nc3ccccc3cc1C2N1CCOCC1 (stereo not given)	GI50	45.8 µM (inactive)
CCOC(=O)c1[nH]c(-c2[nH]c(-c3[nH]c(-c4[nH]c(C(=O)OCC)c(C)c4C(=O)OCC)c(C(=O)OCC)c3C)c(C)c2C(=O)OCC)c(C(=O)OCC)c1C	GI50	> 100 µM (inactive)

I would be grateful if you could provide GI50 for each of the following entries.
1. O=[N+]([O-])c1ccc(-n2nc3ccc4c(no[n+]4[O-])c3n2)cc1
2. CC(C)(C)NCC(O)c1ccc(O)c(CO)n1 (stereo not given)

[A]
> 100 µM (inactive)
> 100 µM (inactive)

I would be grateful if you could provide GI50 for each of the following entries.
1. COC(=O)c1c(OC)cc2cc3c(c(O)c2c1C)C(=O)C1(O)C(=O)C=C(OC)C(OC(=O)CC(C)N)=C1C3=O (stereo not given)
2. CC(=O)OC1=CC(n2cc(F)c(=O)[nH]c2=O)OC(C)C1=O (stereo not given)
3. COc1ccc(C(OCC2OC3(COC(c4ccccc4)(c4ccc(OC)cc4)c4ccc(OC)cc4)C(Oc4nc(=O)ccn43)C2O)(c2ccccc2)c2ccc(OC)cc2)cc1 (stereo not given)

[A]
20.9 µM (inactive)
16.7 µM (inactive)
> 100 µM (inactive)

I would be grateful if you could provide GI50 for each of the following entries.
1. Oc1cccc2cc(Cl)cnc12
2. O=C1CC(=O)NC(NN2C(=O)CSC2C(=O)c2ccco2)=N1 (stereo not given)
3. c1ccc2c(c1)CCc1c-2n(CCN2CCCCC2)c2ccccc12

[A]
["4.42 µM (inactive)", "> 100 µM (inactive)", "15.5 µM (inactive)"]

====

For each of the compounds below, state its GI50.
Tested on: SF-539
Test: NCI tumour cell line growth inhibition, 48 h
Calls of active or inactive are those of the source. Rule as the data show it: active = GI50 up to about 1.1 µM and inactive = higher.

>>> print(df.to_string())
                     compound   experimentalvalue
0  Nc1n[nH]c(N)n1 [GUANAZOLE]  2510 µM (inactive)

I would be grateful if you could provide GI50 for each of the following entries.
1. O=c1oc2ccccc2cc1-c1csc(Nc2cc(Cl)cc(Cl)c2)n1
2. CC(C(=O)n1c2ccccc2c2ccccc21)N(c1ccccc1)c1ccccc1 (stereo unspecified)
3. COc1ccc2nc3cc([N+](=O)[O-])ccc3c(Nc3ccc(S(=O)(=O)N=C(N)N)cc3)c2c1
4. COC(=O)C(CCCC1(c2ccccc2)OCCO1)C(C)=O (stereo unspecified)
5. CC(=O)OC1=CC(n2cc(F)c(=O)[nH]c2=O)OC(C)C1=O (stereo unspecified)
6. COc1ccccc1C(N)c1ccccc1 (stereo unspecified)
7. Cc1ccc(S(=O)(=O)[N-]C2C(=O)c3ccccc3C(=O)C2[n+]2cccc(C(N)=O)c2)cc1 (stereo unspecified)
8. O=C1C2=C(C(=O)c3c(O)ccc(O)c31)[C@@H](O)[C@@H](O)[C@@H](O)C2

[A]
1: 2.28 µM (inactive); 2: 19.2 µM (inactive); 3: 24.1 µM (inactive); 4: > 100 µM (inactive); 5: 3.01 µM (inactive); 6: > 100 µM (inactive); 7: > 100 µM (inactive); 8: 3.71 µM (inactive)

I would be grateful if you could provide GI50 for each of the following entries.
1. CCOC1=NC(O)c2cccn2-c2sccc21 (stereo unspecified)
2. Cc1nc2ccccc2n1Cc1nnc(N)o1

[A]
> 100 µM (inactive)
> 100 µM (inactive)
